Provenance of the data: patent US20140343049A1

Reported pest or weed control at 200 ppm is given for each of the following molecules.
Tested on: Heliothis virescens (tobacco budworm)
experiment: Heliothis virescens egg test on artificial diet
Format: in vivo
experimental context: 96 h, 200 ppm (concentration in well 18 ppm), eggs 0-24 h old, 4 days, egg mortality, larval mortality, growth regulation

Challenge: Given Cc1nc(C2=CC(c3cc(Cl)cc(Cl)c3)(C(F)(F)F)OC2)ccc1C(=O)NCc1ccccc1F (centres unmarked) [Compound C10] , state its recorded pest or weed control at 200 ppm.
Response given: ≥ 80%

Challenge: Need pest or weed control at 200 ppm, item O=C(CNC(=O)c1ccc(C2=CC(c3cc(Cl)cc(Cl)c3)(C(F)(F)F)OC2)nc1Cl)NCC(F)(F)F (centres unmarked) [Compound F1]
Response given: ≥ 80%

Challenge: Any idea what its pest or weed control at 200 ppm is? The molecule is Cc1cc(C2=CC(c3cc(Cl)cc(Cl)c3)(C(F)(F)F)OC2)ccc1C(=O)NCc1ccc(S(C)(=O)=O)cc1 (centres unmarked) [Compound A25]
Response given: ≥ 80%

Challenge: Query: pest or weed control at 200 ppm; subject: Cc1cc(C2=CC(c3cc(Cl)cc(Cl)c3)(C(F)(F)F)OC2)ccc1C(=O)NC1(C)CSC1 (centres unmarked) [Compound A12]
Response given: ≥ 80%

Challenge: Query (molecule): Cc1cc(C2=CO[C@@](c3cc(Cl)cc(Cl)c3)(C(F)(F)F)C2)ccc1C(=O)NCC(=O)NCC(F)(F)F [Compound D5] ; field requested: pest or weed control at 200 ppm
Response given: ≥ 80%

Challenge: // returns reported pest or weed control at 200 ppm for input Cc1nc(C2=CC(c3cc(Cl)cc(Cl)c3)(C(F)(F)F)OC2)ccc1C(=O)NCC(F)(F)F (centres unmarked) [Compound C1]
Response given: ≥ 80%
